Values from patent US20080207708A1

# maps each entry to its IC50
# SYSTEM UNDER TEST: EP1 receptors (Homo sapiens, UniProt P34995)
# ASSAY NOTES: Binding assay for the human prostanoid EP1 receptor (competition with [3H]-PGE2)
# Design: expressed in transfected cells; host or cells: CHO-K1 cells, membrane fraction
# STUDY CONDITIONS: [3H]-PGE2 competition; averages of a number of experiments; read-out: pIC50 value, binding assay for the human prostanoid EP1 receptor (converted)

1) O=C(O)c1csc(Cc2cc(Cl)ccc2OCc2ccc(F)cc2Cl)n1	≤ 31.6 nM
2) CC(C)COc1ccc(Cl)cc1Cc1nc(NC(=O)OC(C)(C)C)cs1	≤ 1000 nM
3) O=C(O)Cc1csc(-c2cc(Cl)ccc2OCc2c(F)cc(F)cc2F)n1	≤ 1000 nM

Briefly, IC50 measured for `O=C(O)Cc1coc(-c2cc(Cl)ccc2OCc2ccc(F)cc2Cl)n1` : ≤ 1000 nM

Reported IC50 for `O=C(Nc1ccccc1)c1csc(Cc2cc(Cl)ccc2OCc2ccccc2)n1` was ≤ 1000 nM

Notebook: `O=C(O)c1nc(Cc2cc(Cl)ccc2OCc2c(F)ccc(F)c2F)cs1` , IC50 read as ≤ 1000 nM

Entry `O=C(NCc1ccncc1)c1csc(Cc2cc(Cl)ccc2OCc2ccccc2)n1` , IC50 reported as ≤ 1000 nM

For reference, reported IC50 for `CNC(=O)c1csc(Cc2cc(Cl)ccc2OCc2ccccc2)n1` stands at ≤ 1000 nM

---

# SYSTEM UNDER TEST: EP1 receptors (Homo sapiens, UniProt P34995)
# Sequence (P34995 1-402): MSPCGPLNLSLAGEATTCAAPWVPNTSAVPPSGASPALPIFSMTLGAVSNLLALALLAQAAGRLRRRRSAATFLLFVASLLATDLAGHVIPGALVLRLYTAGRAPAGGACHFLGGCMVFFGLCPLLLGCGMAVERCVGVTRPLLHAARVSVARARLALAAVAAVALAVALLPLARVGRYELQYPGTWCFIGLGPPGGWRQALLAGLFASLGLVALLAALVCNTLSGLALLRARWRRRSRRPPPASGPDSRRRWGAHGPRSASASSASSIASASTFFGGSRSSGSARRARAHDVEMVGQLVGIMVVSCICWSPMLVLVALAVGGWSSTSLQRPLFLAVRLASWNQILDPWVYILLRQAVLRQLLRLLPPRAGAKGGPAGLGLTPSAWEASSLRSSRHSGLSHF
# ASSAY NOTES: human EP1 calcium mobilisation assay (CHO-K1 cells, FLIPR, PGE2)
# Assay type: cell-based
# Set-up: expressed in transfected cells; host or cells: CHO-K1 cells, pCIN vector
# STUDY CONDITIONS: free bases or sodium salts; averages of a number of experiments; read-out: functional pKi value, human EP1 calcium mobilisation assay (converted)
As shown below, each of these compounds has a reported Ki value.

Below, each entry is followed by its recorded Ki result.
1) O=C(O)c1cccc2nc(-c3csc(Cc4cc(Cl)ccc4OCc4ccccc4)n3)[nH]c12	< 1000 nM
2) O=C(NS(=O)(=O)c1ccccc1)c1csc(Cc2cc(Cl)ccc2OCc2ccc(F)cc2F)n1	< 1000 nM

# ---- query compound ----
Briefly, Ki measured for `Clc1ccc(OCc2ccccc2)c(Cc2nc(-c3cn4ccccc4n3)cs2)c1` : < 1000 nM

---

# SYSTEM UNDER TEST: EP1 receptors (Homo sapiens)
# ASSAY NOTES: Binding assay for the human prostanoid EP1 receptor (competition with [3H]-PGE2)
# Set-up: expressed in transfected cells; host or cells: CHO-K1 cells, membrane fraction
# STUDY CONDITIONS: [3H]-PGE2 competition; averages of a number of experiments; read-out: pIC50 value, binding assay for the human prostanoid EP1 receptor (converted)
Counter-ions that a name gives are not always drawn.
READOUT NAME: IC50

For orientation, consider the following solved cases.
1) CC(C)COc1ccc(Cl)cc1Cc1nc(-c2nc3ccc(CCN4CCCCC4)cc3[nH]2)co1	≤ 0.0316 µM
2) O=C(NS(=O)(=O)c1ccccc1)c1csc(Cc2cc(Cl)ccc2OCc2ccc(F)cc2F)n1	≤ 0.0316 µM
3) CC(C(=O)O)c1csc(-c2cc(Cl)ccc2OCc2ccccc2)n1 (stereo not shown)	≤ 1 µM
4) Clc1ccc(OCc2ccccc2)c(Cc2nc(-c3nc4ccc(N5CCOCC5)cc4[nH]3)cs2)c1 [Example 149, hydrochloride]	≤ 0.0316 µM
5) O=C(NS(=O)(=O)c1ccccc1)c1csc(Cc2cc(Cl)ccc2OCc2ccccc2Cl)n1	≤ 0.0316 µM
6) O=C(O)c1csc(Nc2cc(Cl)ccc2OCc2ccccc2)n1	≤ 1 µM
7) CN(C)Cc1ccc2nc(-c3coc(Cc4cc(Cl)ccc4OCc4ccccc4)n3)[nH]c2c1	≤ 1 µM
8) CC(C)COc1ccc(Cl)cc1Cc1nc(-c2nc3cc(N4CCN(C)CC4)ccc3[nH]2)co1	≤ 0.0316 µM
9) O=C(O)c1csc(Cc2cc(C(F)(F)F)ccc2OCc2ccccc2Br)n1	≤ 1 µM
10) CC(C)COc1ccc(Cl)cc1Cc1nc(C(=O)O)cs1	≤ 0.0316 µM

Field IC50 (EP1 receptors (Homo sapiens)), entry `NC(=O)c1nc(Cc2cc(Cl)ccc2OCc2ccc(Cl)cc2)cs1` : ≤ 1 µM

Per the reported EP1 receptors (Homo sapiens) data, `Clc1ccc(OCc2ccccc2)c(Cc2nc(-c3nnn[nH]3)cs2)c1` has IC50 of ≤ 0.0316 µM

Test item `Clc1ccc(OCc2ccccc2)c(Cc2nc(-c3nc4ccccc4[nH]3)cs2)c1` ; EP1 receptors (Homo sapiens); reported IC50 was ≤ 1 µM

---

Recorded IC50, one value per entry.
# SYSTEM UNDER TEST: EP1 receptors (Homo sapiens)
# ASSAY NOTES: Binding assay for the human prostanoid EP1 receptor (competition with [3H]-PGE2)
# Design: expressed in transfected cells; host or cells: CHO-K1 cells, membrane fraction
# STUDY CONDITIONS: [3H]-PGE2 competition; averages of a number of experiments; read-out: pIC50 value, binding assay for the human prostanoid EP1 receptor (converted)
Where a name gives a salt, the structure may show the parent alone.

Past entries and their recorded results:
1. O=C(NCc1ccccc1)c1csc(Cc2cc(Cl)ccc2OCc2ccccc2)n1 [Example 92]	≤ 1000 nM
2. CN1CCN(c2ccc3nc(-c4csc(Cc5cc(Cl)ccc5OCc5ccccc5)n4)[nH]c3c2)CC1 [Example 148, hydrochloride]	≤ 31.6 nM

Consider now this further compound.
// sample Clc1ccc(OCc2ccccc2)c(Cc2nc(-c3nc4ccc(Cl)nc4[nH]3)cs2)c1 [Example 138] , its IC50 was ≤ 31.6 nM

---

# SYSTEM UNDER TEST: EP1 receptors (Homo sapiens)
# Sequence (P34995 1-402): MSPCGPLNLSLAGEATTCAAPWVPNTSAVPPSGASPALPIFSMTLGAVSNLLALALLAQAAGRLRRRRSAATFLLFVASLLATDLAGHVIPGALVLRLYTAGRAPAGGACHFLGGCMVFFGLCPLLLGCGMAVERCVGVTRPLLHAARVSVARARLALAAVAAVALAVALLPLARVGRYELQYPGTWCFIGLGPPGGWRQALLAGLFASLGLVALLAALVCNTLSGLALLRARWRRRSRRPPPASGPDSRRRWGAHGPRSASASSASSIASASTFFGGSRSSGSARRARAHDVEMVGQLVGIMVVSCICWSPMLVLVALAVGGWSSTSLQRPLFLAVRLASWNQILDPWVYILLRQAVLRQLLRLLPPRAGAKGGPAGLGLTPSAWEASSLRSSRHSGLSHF
# ASSAY NOTES: human EP1 calcium mobilisation assay (CHO-K1 cells, FLIPR, PGE2)
# Type: cell-based
# Parameters: expressed in transfected cells; host or cells: CHO-K1 cells, pCIN vector
# STUDY CONDITIONS: free bases or sodium salts; averages of a number of experiments; read-out: functional pKi value, human EP1 calcium mobilisation assay (converted)
Structures can show the parent of a compound that is named as a salt.
In this section, each of the compounds is paired with its reported Ki.

Below, 5 compounds whose answers are already recorded.
1) CC(C)COc1ccc(Cl)cc1Cc1nc(-c2nc3ccc(N4CCN(C)CC4)cc3[nH]2)cs1 [Example 142, hydrochloride]	< 1 µM
2) O=C(O)Cc1coc(-c2cc(Cl)ccc2OCc2ccc(F)cc2F)n1	> 1 µM
3) O=C(NS(=O)(=O)c1ccccc1)c1csc(Cc2cc(Cl)ccc2OCc2cc(F)c(F)cc2F)n1	≤ 0.0316 µM
4) Cc1nnc(-c2csc(Cc3cc(Cl)ccc3OCC(C)C)n2)[nH]1	< 1 µM
5) CC(C)COc1ccc(Cl)cc1Nc1nc(-c2nc3ccc(CN4CCCC4)cc3[nH]2)cs1	> 1 µM

Recorded result, `O=C(NCc1ccccn1)c1csc(Cc2cc(Cl)ccc2OCc2ccccc2)n1` , Ki: < 1 µM

Kindly note the recorded Ki for `CC(C)COc1ccc(Cl)cc1Cc1nc(-c2nc3ccc(CN4CCN(C)CC4)cc3[nH]2)co1` , which is < 1 µM

Lab note: measured Ki of `O=C(NS(=O)(=O)c1ccccc1)c1csc(Cc2cc(Cl)ccc2OCc2ccc(Cl)cc2F)n1` was < 1 µM

Documented Ki of CN1CCN(c2ccc3[nH]c(-c4csc(Cc5cc(Cl)ccc5OCc5ccccc5)n4)nc3n2)CC1 [Example 151, hydrochloride] : < 1 µM

Lookup result for `O=C(NS(=O)(=O)c1ccccc1)c1csc(Cc2cc(Cl)ccc2OCc2ccccc2F)n1` ; measured Ki: < 1 µM

Kindly note the recorded Ki for `O=C(Nc1ccc(CN2CCCCC2)cc1)c1csc(Cc2cc(Cl)ccc2OCc2ccccc2)n1` , which is > 1 µM

get_value(item= `O=C(Nc1ccc(CN2CCCC2)cc1)c1csc(Cc2cc(Cl)ccc2OCc2ccccc2)n1` , readout=Ki) returns > 1 µM

What the record says about `CN(C)Cc1ccc2nc(-c3coc(Cc4cc(Cl)ccc4OCc4ccccc4)n3)[nH]c2c1` : Ki is < 1 µM

The recorded Ki for CC(C(=O)O)c1csc(-c2cc(Br)ccc2OCc2ccccc2)n1 (stereo not shown) is < 1 µM

Ki for `CN1CCN(Cc2ccc3nc(-c4coc(Cc5cc(Cl)ccc5OCc5ccccc5)n4)[nH]c3c2)CC1` is < 1 µM

The reported Ki of the compound `CC(C)COc1ccc(Cl)cc1Cc1nc(-c2nc3ccc(CCN4CCCC4)cc3[nH]2)co1` was < 1 µM

Input `CC(C)(C(=O)O)c1csc(-c2cc(Cl)ccc2OCc2ccccc2)n1` . Output Ki: < 1 µM

Entry `CC(C)(C(=O)O)c1csc(-c2cc(Br)ccc2OCc2ccccc2)n1` ; Ki = < 1 µM

Documented Ki of `CC(C)COc1ccc(Cl)cc1Cc1nc(-c2nc3ccc(CCN4CCCCC4)cc3[nH]2)co1` : < 1 µM
